Recorded values, source paper PMC5540273.

# Test system: RIPK2;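 further: KINOMEscan kinase panel screen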
# test-parameters: concentration: 1 μM,replicates: in singlicate; n = 1
# maps each entry to its %Inh

Worked examples, 5 molecules total:
[[record]]
molecule = "O=C1NCCc2[nH]c(-c3ccncc3)cc21"
test_readout = "%Inh"
recorded_value = "4%"

[[record]]
molecule = "NC(=O)c1ccc(-c2cc3ncnc(SCC(=O)O)c3s2)cc1"
test_readout = "%Inh"
recorded_value = "18%"

[[record]]
molecule = "COc1cccc(CNC(=O)NC2CCN(c3ccnc(Nc4cc(OC)c(OC)c(OC)c4)n3)C2)c1 (stereo not drawn) [GSK1379765]"
test_readout = "%Inh"
recorded_value = "0%"

[[record]]
molecule = "COC(=O)Nc1nc2cc(Oc3ccc(NC(=O)Nc4cc(C(F)(F)F)ccc4Cl)cc3)ccc2[nH]1.Cl [GW697465]"
test_readout = "%Inh"
recorded_value = "43%"

[[record]]
molecule = "CS(=O)(=O)c1cccc(CNc2nc(Nc3ccc4c(c3)[C@@H]3C[C@@H]4CNC3=O)ncc2C(F)(F)F)c1"
test_readout = "%Inh"
recorded_value = "0%"


Query string: Please report the measured %Inh for "Cn1ccc2ncnc(Oc3ccc(NC(=O)Nc4cccc(C(F)(F)F)c4)c(Cl)c3)c21"
Result string: 43%

Query string: # return recorded %Inh for input "CN(c1cccc(CNc2nc(Nc3ccc4c(c3)CC(=O)N4)ncc2C(F)(F)F)c1)S(C)(=O)=O"
Result string: 0%

Query string: Report %Inh, nothing else, for this molecule: O=C(Nc1n[nH]c2cc(-c3ccco3)ccc12)C1CC1 [SB-737447]
Result string: 0%

Query string: Return reported %Inh. Input molecule: CCn1c(-c2nonc2N)nc2cncc(CNC3CCNCC3)c21.Cl [SB-747651]
Result string: 5%

Query string: Please supply the value of reported %Inh for the item COC(=O)c1cccc(NC(=O)NC2CCN(c3ccnc(NCc4ccc(F)cc4)n3)CC2)c1 [GSK1379860]
Result string: 0%

Query string: Tell me its %Inh given CCCC(=O)Nc1n[nH]c2ncccc12 [SB-601436] as the entry.
Result string: 0%
